tested-target: SP140 (h) bromodomain (Homo sapiens)
Construct: SP140 (h) bromodomain
Sequence (Q13342 754-857 limits assumed): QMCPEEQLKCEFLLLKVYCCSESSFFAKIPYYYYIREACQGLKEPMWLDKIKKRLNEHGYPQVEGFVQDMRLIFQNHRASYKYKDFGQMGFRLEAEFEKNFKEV
test-name: Epigenetic binding assay, Bromodomain
condition-description: Table 4; read-out: Reference IC50
test-readout: IC50 (µM)
One number for each entry, in µM.

Exercise: What value of IC50 has been recorded for this entry: Cc1cc(/N=N/c2cc(S(=O)(=O)O)c(C)cc2C)c(N)cc1O [Ischemin, reference compound]
Key: 86

* * *

tested-target: BRD3(2) (h) bromodomain (Homo sapiens)
Construct: Bromodomain
Sequence (Q15059 306-415 limits assumed): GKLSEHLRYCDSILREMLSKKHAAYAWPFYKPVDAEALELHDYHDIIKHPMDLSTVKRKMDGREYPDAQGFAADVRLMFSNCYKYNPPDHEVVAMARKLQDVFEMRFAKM
test-name: Epigenetic binding assay, Bromodomain
condition-description: Table 4; read-out: Reference IC50
test-readout: pIC50
Give bare numbers, as −log10 of the molar value.

Exercise: What value of pIC50 has been recorded for this entry: COc1ccccc1S(=O)(=O)Nc1ccc2c(c1)CN(C)C(=O)N2 [PFI-1, reference compound]
Key: 6.10
